tested on: 883617-216-R-J1-PDC complex spheroid viability; assay: Anticancer human tumor 883617-216-R-J1-PDC patient-derived bladder carcinoma cell line growth inhibition [POLQ]; conditions: curve of first compound; second compound 0.0316 µM;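 note: spheroids exposed to compounds for seven days before readout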
Property Measured: IC50 (nM)

| Molecule | Property Measured | Result Units | Endpoint Value |
| --- | --- | --- | --- |
| CCCS(=O)(=O)Nc1ccc(F)c(C(=O)c2c[nH]c3ncc(-c4ccc(Cl)cc4)cc23)c1F + COC1C(OC(N)=O)C(O)C(Oc2ccc3c(O)c(NC(=O)c4ccc(O)c(CC=C(C)C)c4)c(=O)oc3c2C)OC1(C)C | IC50 | nM | 8230 |
| COc1cccc(OCCCN)c1-c1cc(Nc2cnc(C#N)cn2)n[nH]1 + Nc1ccc(C#CCN(C(=O)Cc2ncc(C(F)(F)F)cc2C(F)(F)F)c2ccc(F)cc2)nn1 | IC50 | nM | 77.4 |
| CCc1c2c(nc3ccc(O)cc13)-c1cc3c(c(=O)n1C2)COC(=O)[C@]3(O)CC + Nc1ccc(C#CCN(C(=O)Cc2ncc(C(F)(F)F)cc2C(F)(F)F)c2ccc(F)cc2)nn1 | IC50 | nM | 107 |
